pIC50: −log10 of the molar value.
Observed pIC50, system hMAO-B (Homo sapiens).

Below, 4 compounds whose answers are already recorded.
compound | pIC50
CC1OC(OCC2OC(Oc3c(-c4ccc(O)cc4)oc4cc(OC5OC(C)C(O)C(O)C5O)cc(O)c4c3=O)C(O)C(O)C2O)C(O)C(O)C1O (centres unmarked) [Robinin, kaempferol 3-O-robinoside-7-O-rhamnoside] | < 3.40
O=c1c(-c2ccc(O)cc2)coc2cc(O[C@@H]3O[C@H](CO)[C@@H](O)[C@H](O)[C@H]3O)ccc12 [Daidzin] | < 3.40
C[C@@H]1O[C@@H](OC[C@H]2O[C@@H](Oc3c(-c4ccc(O)c(O)c4)oc4cc(O)cc(O)c4c3=O)[C@H](O)[C@@H](O)[C@@H]2O)[C@H](O)[C@H](O)[C@H]1O [Rutin] | < 3.40
CC1OC(OCC2OC(Oc3c(-c4ccc(O)c(O)c4)oc4cc(O)cc(O)c4c3=O)C(O)C(O)C2O)C(O)C(O)C1O (centres unmarked) [Quercetin-3-O-robinobioside] | < 3.40

Continue with the next compound.
Problem: Please indicate recorded pIC50 of CC1OC(OCC2OC(Oc3c(-c4ccc(O)cc4)oc4cc(O)cc(O)c4c3=O)C(O)C(O)C2O)C(O)C(O)C1O (centres unmarked) [Kaempferol-3-O-robinobioside] measured with hMAO-B (Homo sapiens).
Sequence (P27338 whole entry): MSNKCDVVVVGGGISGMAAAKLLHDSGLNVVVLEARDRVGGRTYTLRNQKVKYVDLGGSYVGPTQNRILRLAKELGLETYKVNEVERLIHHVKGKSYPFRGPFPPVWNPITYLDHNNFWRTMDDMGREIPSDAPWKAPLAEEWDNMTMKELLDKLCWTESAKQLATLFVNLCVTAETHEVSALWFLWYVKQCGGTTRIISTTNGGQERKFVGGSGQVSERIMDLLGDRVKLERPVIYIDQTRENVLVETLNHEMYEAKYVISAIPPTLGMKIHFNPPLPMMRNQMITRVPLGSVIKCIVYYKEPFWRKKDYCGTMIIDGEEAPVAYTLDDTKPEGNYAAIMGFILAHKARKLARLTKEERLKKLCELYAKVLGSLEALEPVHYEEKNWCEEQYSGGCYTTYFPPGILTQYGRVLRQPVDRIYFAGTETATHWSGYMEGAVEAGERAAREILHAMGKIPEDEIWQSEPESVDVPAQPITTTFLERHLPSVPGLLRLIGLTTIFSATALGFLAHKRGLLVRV
Result: < 3.40

====

Molecular target: hMAO-A (Homo sapiens, UniProt P21397)
Sequence (P21397 1-527): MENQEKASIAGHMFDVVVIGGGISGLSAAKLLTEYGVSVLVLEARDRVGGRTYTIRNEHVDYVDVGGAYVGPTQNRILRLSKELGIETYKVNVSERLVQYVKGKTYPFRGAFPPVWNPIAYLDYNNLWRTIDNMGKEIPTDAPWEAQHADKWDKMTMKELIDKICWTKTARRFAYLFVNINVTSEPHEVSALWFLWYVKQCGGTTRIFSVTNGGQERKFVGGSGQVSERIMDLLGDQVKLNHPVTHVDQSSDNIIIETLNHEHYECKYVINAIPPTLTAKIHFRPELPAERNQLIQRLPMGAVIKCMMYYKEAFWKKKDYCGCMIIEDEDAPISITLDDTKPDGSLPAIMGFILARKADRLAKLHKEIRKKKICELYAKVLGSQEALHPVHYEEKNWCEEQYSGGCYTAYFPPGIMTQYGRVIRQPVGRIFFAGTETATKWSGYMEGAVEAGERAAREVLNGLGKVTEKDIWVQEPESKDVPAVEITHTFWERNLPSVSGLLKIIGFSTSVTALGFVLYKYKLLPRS
readout: Ki
Reply with a number, then the unit it belongs to.

Problem: Specify reported Ki for the molecule shown: `O=c1oc2cc(O)ccc2c2oc3cc(O)ccc3c12`
Result: 1320 nM

====

Molecular target: Aβ25–35 (Homo sapiens, UniProt P05067)
Construct: amyloid β peptide 25–35 (Aβ25–35); purchased Sigma-Aldrich
Assay: Self Aβ25–35 aggregation assay (thioflavin-T fluorescence)
Assay type: biochemical
Conditions: 100 μM compound, 24 h of incubation
readout: decrease of Aβ25–35 self-aggregation compared to control (%)
API: value field is a number in %; no unit string.

Below, 3 compounds whose answers are already recorded.
chemical-structure | measure-unit | quantitative-result
O=c1oc2cc(O)ccc2c2oc3cc(O)ccc3c12 | % | 76.14
O=c1c(-c2ccc(O)cc2)coc2cc(O)ccc12 | % | 35.54
O=c1c(-c2ccc(O)cc2)coc2cc(O)cc(O)c12 | % | 34.90

Problem: Specify reported decrease of Aβ25–35 self-aggregation compared to control for the compound shown: `C[C@@H]1O[C@@H](OC[C@H]2O[C@@H](Oc3c(-c4ccc(O)c(O)c4)oc4cc(O)cc(O)c4c3=O)[C@H](O)[C@@H](O)[C@@H]2O)[C@H](O)[C@H](O)[C@H]1O`
Result: 49.31

These measurements were taken from paper PMC9502896.
